Test system: Vero E6 infected with SARS-CoV-2
EXPERIMENTAL DETAILS: morphology score (similarity to uninfected cells); higher = more like uninfected cells
MEASUREMENT CONTEXT: 24 h
Exercise: for every item that follows, state its recorded morphology score.
Note: the reply should be a number with no unit written.

Query: # morphology score lookup, item Cc1cc(NC(=O)Nc2ccc(F)c(F)c2)n(-c2ccccc2)n1 (10 µM)
Result: 0.105

Query: Looking for the measured morphology score of COC(=O)N1CCN(Cc2cccc(NC(=O)Nc3ccc(C)nc3)c2F)CC1 [omecamtiv-mecarbil] (10 µM) , can you help?
Result: 0.272

Query: Need morphology score, item CC[C@@H]1/C=C(\C)C[C@H](C)C[C@H](OC)[C@H]2O[C@@](O)(C(=O)C(=O)N3CCCC[C@H]3C(=O)O[C@H](/C(C)=C/[C@@H]3CC[C@@H](O)[C@H](OC)C3)[C@H](C)[C@@H](O)CC1=O)[C@H](C)C[C@@H]2OC [ascomycin] (10 µM)
Result: 0.0662

Query: State the recorded morphology score for this entry: O=C1NC(=O)/C(=C/c2ccc(-c3ccc(F)cc3O)o2)S1 (10 µM)
Result: 0.146

Query: Reported morphology score, molecule C[N+](C)(C)CC(O)CC(=O)[O-] (centres undefined) [carnitine-(D/L)] (10 µM) : ____
Result: -0.213

Query: Reported morphology score for O=C1OC(CN2CCOCC2)CN1/N=C/c1ccc([N+](=O)[O-])o1 (centres undefined) [furaltadone] (10 µM) : what is it?
Result: 0.0402

Query: Recorded morphology score for Oc1ccc(-c2nc3cc(O)cc(Br)c3o2)cc1 (10 µM) , please?
Result: 0.128

Query: Find the recorded morphology score belonging to CCC(CC)[C@H](NC(C)=O)[C@@H]1[C@H](O)[C@@H](C(=O)O)C[C@H]1NC(=N)N [peramivir] (10 µM) and report it.
Result: 0.00579

Query: If you can, please state the reported morphology score value of COc1ccc(C(=O)Nc2sc3c(c2C(N)=O)CCCC3)cc1OC (10 µM) .
Result: -0.0466

###

Tested on: Vero E6 infected with SARS-CoV-2
EXPERIMENTAL DETAILS: morphology score (similarity to uninfected cells); higher = more like uninfected cells
MEASUREMENT CONTEXT: 24 h
Categories are assigned from the measured morphology score using these intervals: range A (below -0.1), range B (-0.1 to below -0.005), range C (-0.005 or more)

Query: Sort into band: Cc1c[nH]c(=O)n(CCCN2CCN(c3ccccc3OCC(F)(F)F)CC2)c1=O (10 µM)
Result: range C

Query: Looking at CC(C)c1noc(N2CCC(COc3ccc(-c4ccc(S(C)(=O)=O)cc4)nc3)CC2)n1 (10 µM) , which class would you pick?
Result: range B

Query: Which bin should I file CSCC[C@H](NC(=O)[C@H](Cc1ccccc1)NC(=O)CNC(=O)CNC(=O)[C@@H](N)Cc1ccc(O)cc1)C(=O)O [metenkephalin] (10 µM) under?
Result: range C

Query: Note: place this compound into its band. Item: CC(C)NC(=O)COc1cccc(-c2nc(Nc3ccc4[nH]ncc4c3)c3ccccc3n2)c1 (0.833333 µM)
Result: range B

Query: Lab note: sort O=C1CCC[C@@H]2[C@H]3C[C@@H](CN12)[C@@H]1CCCCN1C3 [lupanine] (10 µM) into the matching morphology score band.
Result: range B

Query: Dear colleague, I would appreciate it if you could identify the bin for COC(=O)c1c(C)[nH]c(C)c1C(=O)c1ccccc1Cc1ccccc1 (10 µM) and reply at your convenience.
Result: range A

Query: Lab log: O=C1c2ccccc2S(=O)(=O)N1CCCCN1CCN(c2ncccn2)CC1 [ipsapirone] (10 µM) — assign morphology score category
Result: range B

Query: State the band of C#Cc1cccc(Nc2ncnc3cc(OCCOC)c(OCCOC)cc23)c1 [erlotinib] (10 µM)
Result: range A

###

Test system: Vero E6 infected with SARS-CoV-2
EXPERIMENTAL DETAILS: inhibition of SARS-CoV-2 cytopathic effect; higher = more antiviral protection, active = above 15
MEASUREMENT CONTEXT: 100 nM; 48 h
Answer each item with its documented inhibition of SARS-CoV-2 cytopathic effect.
All answers are understood in %, so give the number only.

Query: I would be grateful if you could share the reported inhibition of SARS-CoV-2 cytopathic effect for "Cc1cccc(-c2[nH]c(C(C)(C)C)nc2-c2ccc3nccnc3c2)n1" .
Result: 0.8

Query: Could you tell me which inhibition of SARS-CoV-2 cytopathic effect is on file for "COc1ccc2nc3ccc(Cl)cc3c(SCCCN)c2c1" ?
Result: 0.27

Query: Endpoint output: inhibition of SARS-CoV-2 cytopathic effect of CN(C)C(=O)COC(=O)Cc1ccc(OC(=O)c2ccc(NC(=N)N)cc2)cc1 [camostat-mesilate] . Value?
Result: 1.74

Query: Give the measured inhibition of SARS-CoV-2 cytopathic effect of "COc1ccc(Br)cc1S(=O)(=O)NC(=O)/C=C/c1ccccc1Cc1ccc2ccccc2c1" .
Result: 1.93

Query: Name the recorded inhibition of SARS-CoV-2 cytopathic effect for "CC(=O)CC/C=C(\C)CC/C=C(\C)CC/C=C(\C)CCC=C(C)C" .
Result: -1.34

Query: Which measured inhibition of SARS-CoV-2 cytopathic effect value corresponds to "CC1(C)S[C@@H]2[C@H](N3C(=O)[C@@H](c4ccccc4)NC3(C)C)C(=O)N2[C@H]1C(=O)O" ?
Result: 0.82

Query: // inhibition of SARS-CoV-2 cytopathic effect lookup, key: "O=C1NCCN1c1ncc([N+](=O)[O-])s1"
Result: -4.84

Query: What value of inhibition of SARS-CoV-2 cytopathic effect has been recorded for this entry: CC(C(=O)O)c1ccc2c(c1)Cc1ccccc1-2 (centres undefined)
Result: 2.68

Query: Requested field: inhibition of SARS-CoV-2 cytopathic effect. Item: "CCCc1nc(C(C)(C)O)c(C(=O)OCc2oc(=O)oc2C)n1Cc1ccc(-c2ccccc2-c2nnn[nH]2)cc1"
Result: -1.32

Query: Using the record for "CNCc1ccc(-c2cc(-c3nc(-c4ccc(S(=O)(=O)C(C)C)cc4)cnc3N)on2)cc1" , report its inhibition of SARS-CoV-2 cytopathic effect.
Result: 1.09

Query: Reported inhibition of SARS-CoV-2 cytopathic effect, compound CCCCOC(=O)c1ccccc1Nc1cccc(C(F)(F)F)c1 [ufenamate] : ____
Result: 0.41

Query: # get_value(readout='inhibition of SARS-CoV-2 cytopathic effect', item= CNC(=O)CN(CCN(CCN(CC(=O)[O-])CC(=O)NC)CC(=O)[O-])CC(=O)[O-].[Gd+3] [gadodiamide] )
Result: -3.37

Query: Endpoint output: inhibition of SARS-CoV-2 cytopathic effect of "Cc1cc(NC(=O)C2=C(O)c3ccccc3S(=O)(=O)N2C)no1" . Value?
Result: -4.12

Query: Form field: reported inhibition of SARS-CoV-2 cytopathic effect of N[C@@H](C(=O)O)c1ccc(C(=O)O)c(O)c1 (racemic) [4-carboxy-3-hydroxyphenylglycine-(RS)]
Result: 0.94

Query: // returns reported inhibition of SARS-CoV-2 cytopathic effect for input "CCCN(CCC)C(=O)Cc1c(-c2ccc(Cl)cc2)nc2ccc(Cl)cn12"
Result: -7.76

Query: Entry C[C@@H](NC(=O)[C@@H](N)Cc1ccc(O)cc1)C(=O)NCC(=O)N(C)[C@@H](Cc1ccccc1)C(=O)N[C@H](CO)CC[S+](C)[O-] (some centres undefined) : reported inhibition of SARS-CoV-2 cytopathic effect = ?
Result: -1.84

Query: Sample "Cc1ccc(/C=C2\CNC/C(=C\c3ccc(C)cc3)C2=O)cc1" — what was its inhibition of SARS-CoV-2 cytopathic effect?
Result: -0.54

Query: Value lookup for inhibition of SARS-CoV-2 cytopathic effect; key = "CC(C)(COP(=O)(O)OP(=O)(O)OC[C@H]1O[C@@H](n2cnc3c(N)ncnc32)[C@H](O)[C@@H]1OP(=O)(O)O)[C@@H](O)C(=O)NCCC(=O)NCCS"
Result: 2.41

Query: Requested field: inhibition of SARS-CoV-2 cytopathic effect. Item: "Cc1onc(-c2ccccc2)c1C(=O)N[C@@H]1C(=O)N2[C@@H]1SC(C)(C)[C@@H]2C(=O)O"
Result: 2.17

Query: # lookup: inhibition of SARS-CoV-2 cytopathic effect of "CC(C)(C)NC[C@H](O)COc1cccc2c1CCCC2=O"
Result: -0.235

Query: Any idea what its inhibition of SARS-CoV-2 cytopathic effect is? The compound is "O=C(O)COc1cccc(-c2ocnc2-c2nc(-c3ccccc3)c(-c3ccccc3)o2)c1"
Result: 0.7

Query: Which measured inhibition of SARS-CoV-2 cytopathic effect value corresponds to C#C[C@]1(OC(C)=O)CC[C@H]2[C@@H]3CCC4=C[C@@H](OC(C)=O)CC[C@@H]4[C@H]3CC[C@@]21C [ethynodiol-diacetate] ?
Result: 2.52

Query: I am curious: what inhibition of SARS-CoV-2 cytopathic effect value has been reported for "c1ccc2nc(C3=NCCN3)ccc2c1" ?
Result: 2.25

Query: For the compound shown here, "CCn1c(=O)/c(=C2\Sc3ccccc3N2C)s/c1=C\c1cccc[n+]1CC" , give the reported inhibition of SARS-CoV-2 cytopathic effect.
Result: -0.82

Query: Entry under review: "CN(C)C(=O)c1cc2cnc(Nc3ccc(N4CCNCC4)cn3)nc2n1C1CCCC1" . Reported inhibition of SARS-CoV-2 cytopathic effect?
Result: -0.03

Query: Which value of inhibition of SARS-CoV-2 cytopathic effect has been reported for "O=c1c(O)c(-c2ccc(O)c(O)c2)oc2cc(O)ccc12" in the records?
Result: 0.7

Query: Return reported inhibition of SARS-CoV-2 cytopathic effect; argument: CCN[C@H]1CN(CCCOC)S(=O)(=O)c2sc(S(N)(=O)=O)cc21 [brinzolamide]
Result: -2.91

Query: Item "CCCn1c(=O)[nH]c2nc(-c3ccc(S(=O)(=O)N4CCN(c5ccc(Cl)cc5)CC4)cc3)[nH]c2c1=O" has what recorded inhibition of SARS-CoV-2 cytopathic effect?
Result: -0.16

Query: Which value of inhibition of SARS-CoV-2 cytopathic effect has been reported for "O=C(COc1ccc(C(=O)c2ccccc2)cc1)NC1CCN(Cc2ccccc2)CC1" in the records?
Result: 0.29

Query: What does the record list as inhibition of SARS-CoV-2 cytopathic effect for "Cn1cc(-c2cnc3ccc4ccc(CS(=O)(=O)NCc5ccccn5)cc4c(=O)c3c2)cn1" ?
Result: 1.94

Query: Given the compound "O=C1C(O)=C(O)C(=O)C(O)=C1O" , what is its reported inhibition of SARS-CoV-2 cytopathic effect?
Result: 1.71

Query: Give the measured inhibition of SARS-CoV-2 cytopathic effect of "CCC(=O)NC[C@@H]1C[C@H]1c1cccc2c1CCO2" .
Result: -0.1

Query: Name the reported inhibition of SARS-CoV-2 cytopathic effect value associated with the compound "Cc1c(C(=O)Nc2ccc(N3C[C@@H](C)O[C@@H](C)C3)nc2)cccc1-c1ccc(OC(F)(F)F)cc1"
Result: -1.14

Query: Could you tell me which inhibition of SARS-CoV-2 cytopathic effect is on file for "Cc1cnc(Nc2ccc(OCCN3CCCC3)cc2)nc1Nc1cccc(S(=O)(=O)NC(C)(C)C)c1" ?
Result: -0.42
